- Tested Target: DGAT1 (Homo sapiens)
- Assay: Inhibition of human DGAT1 assessed as conversion of [14C]-oleoyl-CoA to [14C]-triglyceride after 10 mins by scintillation counting
Observed Property: IC50 (nM)

- Compound String: "CC(C)[C@H](NC(=O)c1cc(-c2ccc(NC(=O)Nc3ccccc3F)cc2)no1)C(=O)O"
  Measure Unit: "nM"
  IC50: 141
- Compound String: "CC(C)[C@H](NC(=O)c1cc(-c2ccc(NC(=O)Nc3ccc(F)cc3F)cc2)no1)C(=O)O"
  Measure Unit: "nM"
  IC50: 62
- Compound String: "CC(C)[C@H](NC(=O)c1cc(-c2ccc(NC(=O)Nc3ccc(F)cc3)cc2)no1)C(=O)O"
  Measure Unit: "nM"
  IC50: 60

A = CC(C)[C@H](NC(=O)c1cc(-c2ccc(NC(=O)Nc3cc(F)cc(F)c3)cc2)no1)C(=O)O
B = CC(C)[C@H](NC(=O)c1cc(-c2ccc(NC(=O)Nc3c(F)cccc3F)cc2)no1)C(=O)O
C = CC(C)[C@H](NC(=O)c1cc(-c2ccc(NC(=O)Nc3ccccc3Cl)cc2)no1)C(=O)O
q: Arrange the 3 compounds from largest to smallest IC50. Give me the labels in the order the question wants.
a: B, A, C
